Assay: Oral bioavailability in dog
Format: ADME, organism-based, Canis lupus familiaris
Conditions: in vivo, read-out: Activity
Catalogue of compounds with associated bioavailability
Return type: number; implicit unit %.

O=S(=O)(Nc1ccc(CCNC[C@H](O)c2cccnc2)cc1)c1ccc(-n2ncc(Cc3ccc(F)c(F)c3)n2)cc1: 38

Inquiry: Record request: bioavailability value, item O=S(=O)(Nc1ccc(CCNC[C@H](O)c2cccnc2)cc1)c1ccc(-n2ncc(Cc3ccc(C(F)(F)F)cc3)n2)cc1
Reply text: 25

---

Molecular target: UniProt:P08588
Sequence (P08588 whole entry): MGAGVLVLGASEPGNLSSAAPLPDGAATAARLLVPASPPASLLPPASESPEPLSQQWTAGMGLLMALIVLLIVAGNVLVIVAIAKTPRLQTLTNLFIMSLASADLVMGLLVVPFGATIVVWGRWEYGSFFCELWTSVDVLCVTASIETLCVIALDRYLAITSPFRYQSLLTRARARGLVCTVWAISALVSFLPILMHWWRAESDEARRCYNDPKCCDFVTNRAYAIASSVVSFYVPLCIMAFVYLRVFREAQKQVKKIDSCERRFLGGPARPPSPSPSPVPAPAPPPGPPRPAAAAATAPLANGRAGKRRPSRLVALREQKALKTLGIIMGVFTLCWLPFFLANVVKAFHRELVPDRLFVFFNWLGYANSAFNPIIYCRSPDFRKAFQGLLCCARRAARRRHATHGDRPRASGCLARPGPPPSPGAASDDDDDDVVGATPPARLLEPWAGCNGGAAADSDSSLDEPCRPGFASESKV
Assay: Binding affinity for cloned human Beta-1 adrenergic receptor expressed in CHO cells, tested in the presence of I-iodocyanopindolol.
Entries and their pIC50
A value of pIC50 is the negative decimal logarithm of a concentration given in moles per litre.

Answered cases to consult:
O=S(=O)(Nc1ccc(CCNC[C@H](O)c2cccnc2)cc1)c1ccc(-n2ncc(-c3ccc(OC(F)(F)F)cc3)n2)cc1: 5.89
O=S(=O)(Nc1ccc(CCNC[C@H](O)c2cccnc2)cc1)c1ccc(-n2ncc(COc3ccc(OC(F)(F)F)cc3)n2)cc1: 5.21

Inquiry: Under UniProt:P08588: pIC50 value of O=S(=O)(Nc1ccc(CCNC[C@H](O)c2cccnc2)cc1)c1ccc(-n2ncc(Cc3cccc(F)c3)n2)cc1 ?
Reply text: 5.52

Inquiry: Could you do the same for O=S(=O)(Nc1ccc(CCNC[C@H](O)c2cccnc2)cc1)c1ccc(-n2ncc(Cc3ccc(F)c(F)c3)n2)cc1 , please?
Reply text: 5.70

Inquiry: Now try O=S(=O)(Nc1ccc(CCNC[C@H](O)c2cccnc2)cc1)c1ccc(-n2ncc(Cc3ccc(OC(F)(F)F)cc3)n2)cc1 .
Reply text: 5.59

Inquiry: Next record, please: O=S(=O)(Nc1ccc(CCNC[C@H](O)c2cccnc2)cc1)c1ccc(-n2ncc(-c3cccc(F)c3)n2)cc1
Reply text: 5.06

Inquiry: Continue with O=S(=O)(Nc1ccc(CCNC[C@H](O)c2cccnc2)cc1)c1ccc(-n2ncc(Cc3ccc(F)cc3)n2)cc1
Reply text: 5.60

Inquiry: Now try O=S(=O)(Nc1ccc(CCNC[C@H](O)c2cccnc2)cc1)c1ccc(-n2ncc(Cc3c(F)cccc3F)n2)cc1 .
Reply text: 4.55

Inquiry: Also check O=S(=O)(Nc1ccc(CCNC[C@H](O)c2cccnc2)cc1)c1ccc(-n2ncc(Cc3c(F)cc(F)cc3F)n2)cc1
Reply text: 5.00
